molecular target: KIT (Homo sapiens, UniProt P10721); construct: made in house; assay: Competition binding assay, KIT Kd
Sequence (P10721 26-976): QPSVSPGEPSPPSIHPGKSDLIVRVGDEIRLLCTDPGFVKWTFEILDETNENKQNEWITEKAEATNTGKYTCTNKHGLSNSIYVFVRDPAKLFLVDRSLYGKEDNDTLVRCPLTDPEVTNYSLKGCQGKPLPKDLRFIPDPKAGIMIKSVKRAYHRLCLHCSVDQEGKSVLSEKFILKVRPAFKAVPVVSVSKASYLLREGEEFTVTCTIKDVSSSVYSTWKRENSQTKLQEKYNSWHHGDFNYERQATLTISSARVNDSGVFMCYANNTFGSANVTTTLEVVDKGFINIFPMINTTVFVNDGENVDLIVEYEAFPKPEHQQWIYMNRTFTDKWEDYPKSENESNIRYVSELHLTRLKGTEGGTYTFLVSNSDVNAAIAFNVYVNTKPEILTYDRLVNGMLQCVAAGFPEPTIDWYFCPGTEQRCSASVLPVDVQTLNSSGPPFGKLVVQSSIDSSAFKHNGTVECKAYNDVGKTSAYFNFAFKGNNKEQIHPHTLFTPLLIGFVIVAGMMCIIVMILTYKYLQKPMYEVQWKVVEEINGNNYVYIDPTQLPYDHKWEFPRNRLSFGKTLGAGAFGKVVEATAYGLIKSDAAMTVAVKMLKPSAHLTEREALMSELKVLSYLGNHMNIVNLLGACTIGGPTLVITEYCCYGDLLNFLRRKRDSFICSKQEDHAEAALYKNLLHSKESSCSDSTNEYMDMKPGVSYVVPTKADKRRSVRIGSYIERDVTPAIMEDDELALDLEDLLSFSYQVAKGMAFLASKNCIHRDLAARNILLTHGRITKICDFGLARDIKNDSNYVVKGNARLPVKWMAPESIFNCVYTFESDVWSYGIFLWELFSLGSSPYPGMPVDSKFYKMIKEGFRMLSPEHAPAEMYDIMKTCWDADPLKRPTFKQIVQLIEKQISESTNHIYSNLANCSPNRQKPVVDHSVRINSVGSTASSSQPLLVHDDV
measuredParameter: Kd

compound | recordedValue
COc1cc2ncn(Cc3ccc4nc(NC5CCOC5)sc4c3)c2cc1OC (racemic) [Example 25] | > 2000 nM
CC(=O)c1cnc2c(c1)ncn2Cc1ccc2nc(N[C@@H]3CCCC[C@H]3O)sc2c1 [Example 73] | 100 to 500 nM
COc1cc2ncn(Cc3ccc4nc(NC[C@H]5CCCO5)sc4c3)c2cc1OC [Example 8] | 500 to 2000 nM
CSCc1cnc2c(c1)ncn2Cc1ccc2nc(N[C@@H]3CCCC[C@H]3O)sc2c1 [Example 86] | ≤ 100 nM
CSc1cnc2c(c1)ncn2Cc1ccc2nc(N[C@@H]3CCCC[C@H]3O)sc2c1 [Example 85] | ≤ 100 nM
COc1cc2ncn(Cc3ccc4nc(N[C@@H]5CCCCC5O)sc4c3)c2cc1OC (stereo in doubt) [Example 2] | 100 to 500 nM
COC(c1ccc2nc(N[C@@H]3CCCC[C@H]3O)sc2c1)c1c[nH]c2ncccc12 (stereo partly drawn) [Example 12] | > 2000 nM
COc1cc2ncn(Cc3ccc4nc(Nc5ccccc5O)sc4c3)c2cc1OC [Example 31] | 100 to 500 nM
COc1ccc2c(c1)ncn2Cc1ccc2nc(N[C@@H]3CCCC[C@H]3O)sc2c1 [Example 68] | 100 to 500 nM
COc1cc2c(cc1Br)ncn2Cc1ccc2nc(N[C@@H]3c4ccccc4C[C@H]3O)sc2c1 [Example 49] | 500 to 2000 nM
Cn1cc(-c2nccn(Cc3ccc4nc(N[C@@H]5CCCC[C@H]5O)sc4c3)c2=O)cn1 [Example 103] | > 2000 nM
O[C@@H]1CCCC[C@H]1Nc1nc2ccc(Cn3cnc4cc(Br)cnc43)cc2o1 [Example 61] | ≤ 100 nM
